# Test system: Malme-3M
# TEST NAME: NCI tumour cell line growth inhibition, 48 h
Calls of active or inactive are those of the source. Rule as the data show it: active = GI50 up to about 1.1 µM and inactive = higher.
Listed next: entries and their corresponding GI50.

| COMPOUND | GI50 |
| --- | --- |
| CCOC(=O)CCC(NC(=O)c1ccc(Nc2nc3ccccc3nc2-c2cccs2)cc1)C(=O)OCC (centres undefined) | 24.1 µM (inactive) |
| Cn1c(COC(=O)NC2CCCCC2)c(COC(=O)NC2CCCCC2)c2ccc3ccccc3c21 | 36.4 µM (inactive) |
| C/C=C/C(C#N)(/C=C/c1ccccc1)OP1(=O)OC(c2ccccc2)C(C)N1C (centres undefined) | 18.9 µM (inactive) |
| COC1OC(CO)C(O)C(OC(C)=O)C1NC(=O)N(CCCl)N=O (centres undefined) | > 100 µM (inactive) |
| O=[N+]([O-])c1cccc2nccc(NCC(O)CO)c12 (centres undefined) | 14.4 µM (inactive) |
| COc1cc2c(cc1O)[C@H](C)C(c1ccc(OC)c(OC)c1)O2 (some centres undefined) | 10.3 µM (inactive) |
| CC[N+](C)(C)c1ccc(C(=C2C=CC(=[N+](C)C)C=C2)c2ccc(N(C)C)cc2)cc1 | 22.8 µM (inactive) |
| O=C1C(C(c2ccccc2)N2CCOCC2)=C(O)C(c2ccccc2)N1c1ccccc1 (centres undefined) | 3.05 µM (inactive) |
| CC(C)(C)OC(=O)N1C(OP(=O)(Oc2ccccc2)Oc2ccccc2)=CSc2ccccc21 | 27.7 µM (inactive) |
| COc1cccc(/C=N/NC(N)=O)c1O | > 100 µM (inactive) |
| COc1ccc(-c2ccccc2)c2[nH]c3c(c12)CCNC3=O | > 100 µM (inactive) |
| CC(=O)OC1C(COC(=O)c2ccccc2)OC(Nc2ncc(-c3ccc(Br)cc3)s2)C(OC(=O)c2ccccc2)C1OC(=O)c1ccccc1 (centres undefined) | > 100 µM (inactive) |
| C[C@H]1[C@H](C)CC[C@]2(C(=O)OC3OC(CO)C(O)C(O)C3O)CC[C@]3(C)C(=CC[C@@H]4[C@@]5(C)C[C@H]6OC(=O)c7cc(O)c(O)c(O)c7-c7c(cc(O)c(O)c7O)C(=O)O[C@@H]6C(CO)(CO)[C@@H]5CC[C@]43C)[C@H]12 (some centres undefined) | > 100 µM (inactive) |
| CC1=NN(C(=O)Cc2ccccc2)C(=O)/C1=C\c1cccc(O)c1 | > 100 µM (inactive) |
| Cc1cc(/N=C/c2ccc(N(C)C)cc2)n(-c2ccccc2)n1 | > 100 µM (inactive) |
| O=C(NCCCCN(CCCNC(=O)C(F)(F)F)Cc1ccc2ccccc2c1)C(F)(F)F | 15.3 µM (inactive) |
| CCOC(=O)C1Cc2c(ccc(OC)c2OC)C(=O)C1N (centres undefined) | > 100 µM (inactive) |
| CCOC(=O)/C(=C\NC(C)(C)C)c1nc2ccccc2o1 | 35.7 µM (inactive) |
| O=C(Cc1ccccc1)N/N=C(/CCN1CCCC1)CC(c1ccccc1)c1c(O)c2ccccc2oc1=O (centres undefined) | 57.4 µM (inactive) |

* * *

# Test system: SK-MEL-28
# TEST NAME: NCI tumour cell line growth inhibition, 48 h
The source made the active and inactive calls. Cut-off read from the data, not from the text of the source: active = GI50 up to about 1.1 µM and inactive = higher.
Classes used: T for active, F for inactive

| MOLECULE | DISCRETE LABEL |
| --- | --- |
| CN(C)Cc1[nH]c2ccccc2c1C(=O)c1ccccc1 | F |
| N#Cc1ccc(C2SCc3nc4ccccc4n32)cc1 (stereo unspecified) | F |
| CC(C)(C)/N=c1/n(C(C)(C)C)oc(=O)n1C(C)(C)C | F |
| COc1ccc(N2C(=O)/C(=C\c3cccc(Oc4ccccc4)c3)SC2c2ccccc2)cc1 (stereo unspecified) | F |
| O=C1CC2C=CC1C2CO (stereo unspecified) | F |
| CCCCCCCCCCCCCCC1OC(=O)c2ccccc21 (stereo unspecified) | F |
| C=C1C(=O)O[C@H]2[C@H]1CC(=O)/C(C)=C/CC[C@@]1(C)O[C@@H]21 | T |
| O=C(NNC(=O)c1ccccc1O)c1cccc(Br)c1 | F |
| Cc1ccc(NC(=O)/C(=N/N(C)C)C(C2OC(=O)c3ccccc32)[N+](=O)[O-])cc1 (stereo unspecified) | F |
| CS(=O)(=O)CC1=Nc2nnc(CCCCCCCc3nnc4n3C(=O)C(CS(C)(=O)=O)=N4)n2C1=O | F |
| COC(=O)c1[nH]c(=S)[nH]c(=O)c1-c1ccc(Cl)cc1 | F |

* * *

Listed next: entries and their corresponding GI50.
# Tested on: OVCAR-5
# TEST NAME: NCI tumour cell line growth inhibition, 48 h
The source made the active and inactive calls. Rule as the data show it: active = GI50 up to about 1.1 µM and inactive = higher.
REPORTED PROPERTY: GI50

| MOLECULE | ENDPOINT VALUE |
| --- | --- |
| COC(=O)C1=C(OC(=O)/C(=C/c2ccccc2)c2ccccc2)C(C(=O)OC)[C@@]2(O)[C@@H](C(=O)OC)[C@H](C)C[C@@H]1[C@@H]2C(=O)OC (stereo not given in full) | > 100 µM (inactive) |
| Nc1nc2c(-c3ccc([N+](=O)[O-])cc3)nnn2c2ccccc12 | > 100 µM (inactive) |
| COc1c(-c2nc3ccc(N4CCN(C)CC4)nc3[nH]2)cc(OC)c2[nH]c(COC(C)=O)nc12 | 55.7 µM (inactive) |
| COc1ccc(/C=C2\C(=O)N(C(=O)c3ccc(NC(C)=O)cc3)N=C2C)cc1 | > 100 µM (inactive) |
| O=C(c1cc(Br)ccc1O)c1cc(Br)ccc1O | 17.4 µM (inactive) |
| CC(=O)OC(/C=C/c1ccccc1)=C(OC(C)C)/C1=C(\c2ccccc2)SCCCSC1=O | > 100 µM (inactive) |
| C=CCOCCC(CC=C)C(=O)CC(=O)OC (stereo not given) | > 100 µM (inactive) |
| COc1cccc(C=C(C#N)C#N)c1OC | > 100 µM (inactive) |
| CC1(C)Oc2ccc3c(=O)c4ccccc4oc3c2C1C(=O)O (stereo not given) | > 100 µM (inactive) |
| c1ccc2c(c1)CC1COc3ccccc3C1O2 (stereo not given) | > 100 µM (inactive) |

* * *

# System: SF-539
# TEST NAME: NCI tumour cell line growth inhibition, 48 h
Active and inactive are the calls of the source. Cut-off read from the data, not from the text of the source: active = GI50 up to about 1.1 µM and inactive = higher. Non-standard residues stand in square brackets, D forms with d. Residues, ends and D or L forms follow the SMILES beside them. *: point of attachment. Benzoyl(4-OMe) = COc1ccc(C(=O)*)cc1; 2Thi = N[CH](Cc1cccs1)C(=O)O
REPORTED PROPERTY: GI50

| COMPOUND | TESTED SYSTEM | ENDPOINT VALUE |
| --- | --- | --- |
| CCCCOC(=O)C1C2CCC(O2)C1C(=O)OCCCC (centres undefined) | SF-539 | > 76.6 µM (inactive) |
| COc1ccc(-c2c(C#N)c(O)n(NS(=O)(=O)c3ccc(C)cc3)c(=O)c2C#N)cc1 | SF-539 | 67.8 µM (inactive) |
| CC(=O)SCCC1c2[nH]c3ccccc3c2CCN1O (centres undefined) | SF-539 | > 100 µM (inactive) |
| COC(=O)CCC(=O)N1C/C(=C\c2ccccc2)C(=O)/C(=C/c2ccccc2)C1 | SF-539 | 2.94 µM (inactive) |
| CC[N+](C)(C)c1ccc(C(=C2C=CC(=[N+](C)C)C=C2)c2ccc(N(C)C)cc2)cc1 | SF-539 | 12.8 µM (inactive) |
| CC(=O)OC12c3ccccc3C(c3ccccc31)C1C(=O)N(c3ccccc3O)C(=O)C12 (centres undefined) | SF-539 | > 100 µM (inactive) |
| COC1CC(Br)(C#N)C1 (centres undefined) | SF-539 | > 100 µM (inactive) |
| C=C(/C=C/C=C(\CO)CCC=C(C)C)[C@H]1CCC2([C@H](CCCO)/C(=C(/C)C=O)CC[C@]2(C)O)[C@H]1O (some centres undefined) | SF-539 | 83.4 µM (inactive) |
| O=c1c(-c2ccccc2)c2oc(c1-c1ccccc1)CS(=O)(=O)CCC2 | SF-539 | 18.2 µM (inactive) |
| CCOc1ccc(/N=C/c2ccc3ccccc3n2)cc1 | SF-539 | > 100 µM (inactive) |
| Clc1ccc(SC(/C=C/NNC2=NN=C(c3ccccc3)C(c3ccccc3)N2)c2ccccc2)cc1 (centres undefined) | SF-539 | 26.4 µM (inactive) |
| O=c1ccn(C2OC(CO)C(O)C2F)c(=O)n1Cc1ccccc1 (centres undefined) | SF-539 | > 100 µM (inactive) |
| CC(=O)Nc1ccc(/C=N\N2C(=O)c3ccccc3C2=O)cc1 | SF-539 | > 100 µM (inactive) |
| CCC(C)C(NC(=O)C(Cc1cccs1)NC(=O)C(CC(C)C)NC(=O)C(CC(C)C)NC(=O)C(CCCCN)NC(=O)C(CCCNC(=N)N)NC(=O)c1ccc(OC)cc1)C(=O)NC(CC(C)C)C(N)=O (centres undefined) ({Benzoyl(4-OMe)}-RKLL[2Thi]IL-NH2; configuration not given here) | SF-539 | > 100 µM (inactive) |
| O=S(O)CCCCSSCCCCSSCCCCS(=O)O | SF-539 | 66.2 µM (inactive) |
| O=C(NO)c1ccc([N+](=O)[O-])cc1 | SF-539 | 24.5 µM (inactive) |
| N#Cc1cc(-c2nc3cc(F)ccc3s2)ccc1N | SF-539 | 13.3 µM (inactive) |
| C[C@]12CC/C(=N\O)C=C1CC[C@@H]1[C@@H]2CC[C@]2(C)C(=N/O)/C(=C/c3cccnc3)C[C@@H]12 | SF-539 | 25.2 µM (inactive) |
| O=C1OCC(c2ccc(Cl)cc2)=C1Cl | SF-539 | 38 µM (inactive) |
